Population Healthy Nuclei (%) by entry:
- System: Fibroblast
- PROCEDURE SUMMARY: Multiplex assay against human fibroblast
- Format: toxicity, cell-based
- TEST SETTINGS: 12 h, 1 µM, compound concentration 1 uM, replicate 1
Expressed in %, but write only the number.

{"COMPOUND": "Cl.Cn1c2c(c3ccc(Cl)c(Cl)c31)C(C#N)C1(CCNCC1)NC2=O (stereo not drawn)", "READOUT UNIT": "%", "REPORTED": 51}
{"COMPOUND": "C[C@@H](Oc1cc(-n2cnc3ccc(CN4CCN(C)CC4)cc32)sc1C(N)=O)c1ccccc1C(F)(F)F", "READOUT UNIT": "%", "REPORTED": 36}
{"COMPOUND": "Cc1c(Nc2ccc(S(=O)(=O)N3CCN(C)CC3)cc2F)nc2ccc(Nc3cnn(C4CC4)c3)cn2c1=O", "READOUT UNIT": "%", "REPORTED": 50}
{"COMPOUND": "CC[C@@H]1C(=O)N(C)c2cnc(Nc3ccc(C(=O)NC4CCN(C)CC4)cc3OC)nc2N1C1CCCC1", "READOUT UNIT": "%", "REPORTED": 51}
{"COMPOUND": "Cc1ccc(NC(=O)Nc2cc(C(F)(F)F)ccc2F)cc1Nc1ccc2c(c1)NC(=O)/C2=C\\c1ccc[nH]1", "READOUT UNIT": "%", "REPORTED": 59}

Request: Could you tell me which Population Healthy Nuclei (%) is on file for Oc1cccc(-c2nc(N3CCOCC3)c3oc4ncccc4c3n2)c1 ?
Result: 39

Request: Could you tell me which Population Healthy Nuclei (%) is on file for N#CCNC(=O)c1ccc(-c2ccnc(Nc3ccc(N4CCOCC4)cc3)n2)cc1 ?
Result: 40

Request: Could you tell me which Population Healthy Nuclei (%) is on file for NC(=O)c1ccc2nc(-c3ccc(C4(N)CCC4)cc3)c(-c3ccccc3)n2n1 ?
Result: 33

Values were extracted from ChEMBL document CHEMBL4689842.
